pIC50: −log10 of the molar value.
This document collects pIC50 values reported for human PI3Kδ enzyme (Homo sapiens).
reported.metric: pIC50

a = CC(C)(O)CN(CC1CCC1)[C@H]1CC[C@H](CNc2nc(N3CCOCC3)cc(-n3c(C(F)F)nc4ccccc43)n2)CC1 [Example 441]
b = FC[C@@H]1CCCN1[C@H]1CC[C@H](COc2cc(-n3c(C(F)F)nc4ccccc43)nc(N3CCOCC3)n2)CC1 [Example 482]
Which value of pIC50 is greater, the one for a or the one for b ? Please indicate the selected item by its label.
b
(b: 8.34, a: 7.82)

---

pIC50: −log10 of the molar value.
human PI3Kδ enzyme (Homo sapiens): reported pIC50 for various compounds.
reported.metric: pIC50

compound: FC(F)c1nc2ccccc2n1-c1cc(OC[C@H]2CC[C@H](N3CCOCC3)CC2)nc(N2CCOCC2)n1
pIC50: 8.25

P = N[C@H]1CC[C@H](Nc2nc(N3CCOCC3)nc(-n3c(C(F)F)nc4ccccc43)n2)CC1
Q = O=C(CN1CCCC1)N[C@H]1CC[C@H](Nc2nc(N3CCOCC3)cc(-n3c(C(F)F)nc4ccccc43)n2)CC1
R = COCCCN(C)[C@H]1CC[C@H](CNc2nc(N3CCOCC3)cc(-n3c(C(F)F)nc4ccccc43)n2)CC1
Hi! Can you put these in order of pIC50, lowest number first? Sort the labels as requested; that list is your answer.
P, Q, R

A = COCCN(CC(C)F)[C@H]1CC[C@H](CNc2nc(N3CCOCC3)cc(-n3c(C(F)F)nc4ccccc43)n2)CC1 (stereo partly drawn)
B = CCN(CCOC)[C@H]1CC[C@H](CNc2nc(N3CCOCC3)cc(-n3c(C(F)F)nc4ccccc43)n2)CC1
Higher pIC50: A or B ? Which one? Tell me its label.
A
(A: 8.19, B: 7.74)

---

# assay.target: human PI3Kδ enzyme (Homo sapiens, UniProt O00329)
# Sequence (O00329 whole entry): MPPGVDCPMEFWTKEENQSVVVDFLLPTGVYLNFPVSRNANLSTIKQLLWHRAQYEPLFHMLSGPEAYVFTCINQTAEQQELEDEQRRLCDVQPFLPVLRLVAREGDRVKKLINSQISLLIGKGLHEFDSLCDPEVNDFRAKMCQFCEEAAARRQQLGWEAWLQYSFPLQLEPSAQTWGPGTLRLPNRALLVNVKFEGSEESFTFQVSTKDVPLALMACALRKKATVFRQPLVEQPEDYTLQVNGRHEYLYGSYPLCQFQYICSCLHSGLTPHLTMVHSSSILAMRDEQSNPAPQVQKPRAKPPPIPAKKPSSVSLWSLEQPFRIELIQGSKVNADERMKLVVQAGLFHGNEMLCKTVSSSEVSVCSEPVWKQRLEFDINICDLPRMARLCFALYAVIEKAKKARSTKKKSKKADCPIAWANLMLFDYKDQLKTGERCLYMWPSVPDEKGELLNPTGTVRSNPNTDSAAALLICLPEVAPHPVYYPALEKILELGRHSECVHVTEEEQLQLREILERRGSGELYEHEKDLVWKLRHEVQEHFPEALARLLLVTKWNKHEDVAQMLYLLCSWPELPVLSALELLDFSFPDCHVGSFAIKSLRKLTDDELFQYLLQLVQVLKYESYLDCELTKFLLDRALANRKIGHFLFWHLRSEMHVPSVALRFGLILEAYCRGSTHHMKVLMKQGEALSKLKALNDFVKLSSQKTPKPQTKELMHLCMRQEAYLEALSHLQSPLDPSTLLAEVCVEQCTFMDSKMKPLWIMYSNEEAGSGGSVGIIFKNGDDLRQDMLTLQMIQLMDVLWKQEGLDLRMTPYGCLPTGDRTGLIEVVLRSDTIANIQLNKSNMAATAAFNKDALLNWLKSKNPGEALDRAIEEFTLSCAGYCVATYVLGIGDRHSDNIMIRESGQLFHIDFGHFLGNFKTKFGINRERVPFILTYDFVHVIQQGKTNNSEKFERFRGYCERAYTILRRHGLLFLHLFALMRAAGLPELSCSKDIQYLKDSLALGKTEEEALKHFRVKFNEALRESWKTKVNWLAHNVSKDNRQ
# Sequence (P27986 whole entry partner): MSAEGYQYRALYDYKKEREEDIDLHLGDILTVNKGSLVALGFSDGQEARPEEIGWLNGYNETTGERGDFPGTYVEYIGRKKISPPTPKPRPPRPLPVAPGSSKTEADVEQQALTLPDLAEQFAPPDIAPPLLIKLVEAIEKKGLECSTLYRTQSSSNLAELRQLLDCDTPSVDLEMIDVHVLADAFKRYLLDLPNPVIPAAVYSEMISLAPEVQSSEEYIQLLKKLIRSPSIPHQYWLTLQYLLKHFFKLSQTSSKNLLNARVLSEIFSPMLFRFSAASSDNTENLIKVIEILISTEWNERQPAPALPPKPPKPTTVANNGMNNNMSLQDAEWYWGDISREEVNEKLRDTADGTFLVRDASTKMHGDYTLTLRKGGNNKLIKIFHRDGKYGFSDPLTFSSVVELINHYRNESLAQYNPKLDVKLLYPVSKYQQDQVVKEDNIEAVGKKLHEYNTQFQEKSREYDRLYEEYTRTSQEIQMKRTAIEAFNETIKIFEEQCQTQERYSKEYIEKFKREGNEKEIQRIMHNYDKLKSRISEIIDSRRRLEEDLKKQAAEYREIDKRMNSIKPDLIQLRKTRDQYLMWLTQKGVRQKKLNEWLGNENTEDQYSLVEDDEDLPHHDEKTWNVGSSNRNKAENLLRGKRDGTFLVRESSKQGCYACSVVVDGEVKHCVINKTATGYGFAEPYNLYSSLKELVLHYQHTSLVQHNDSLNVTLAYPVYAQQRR
pIC50: −log10 of the molar value.
reported.metric: pIC50

Some compounds with recorded pIC50:
compound: CCN(C(C)COC)[C@H]1CC[C@H](CNc2nc(N3CCOC[C@H]3C)cc(-n3c(C(F)F)nc4ccccc43)n2)CC1 (stereo partly drawn)
pIC50: 8.34

compound: C#CCN(CC#C)[C@H]1CC[C@H](CNc2nc(N3CCOCC3)cc(-n3c(C(F)F)nc4ccccc43)n2)CC1
pIC50: 7.96

compound: CCN(C(=O)COC)[C@H]1CC[C@H](CNc2nc(N3CCOCC3)cc(-n3c(C(F)F)nc4ccccc43)n2)CC1
pIC50: 7.96

compound: CCN(CC)[C@H]1CC[C@H](CNc2nc(N3CCOCC3)cc(-n3c(C(F)F)nc4ccccc43)n2)CC1
pIC50: 8.22

compound: CC(N(C)[C@H]1CC[C@H](CNc2nc(N3CCOC[C@H]3C)cc(-n3c(C(F)F)nc4ccccc43)n2)CC1)C(C)(C)O (stereo partly drawn)
pIC50: 8.37

compound: CCN(CC(C)(C)O)[C@H]1CC[C@H](CNc2nc(N3CCOC[C@@H]3C)cc(-n3c(C(F)F)nc4ccccc43)n2)CC1
pIC50: 8.31

a = CN(CCO)[C@H]1CC[C@H](CNc2nc(N3CCOCC3)cc(-n3c(C(F)F)nc4ccccc43)n2)CC1
b = FC(F)c1nc2ccccc2n1-c1cc(N2CCOCC2)nc(NC[C@H]2CC[C@H](N3CCOCC3)CC2)n1
c = O=C(CN1CCCC1)N[C@H]1CC[C@H](Oc2cc(-n3c(C(F)F)nc4ccccc43)nc(N3CCOCC3)n2)CC1
Rank the items in ascending order with respect to pIC50. Return the labels ranked in the requested order, please.
c, a, b
(c: 7.52, a: 8.01, b: 8.23)

A = CC(=O)N(C)[C@H]1CC[C@H](Nc2nc(N3CCOCC3)nc(-n3c(C(F)F)nc4ccccc43)n2)CC1
B = O=C(N[C@H]1CC[C@H](Nc2nc(N3CCOCC3)nc(-n3c(C(F)F)nc4ccccc43)n2)CC1)C(O)CO (stereo partly drawn)
Parameter check: reported pIC50 is higher for which label, A or B ? Your answer should be the label attached to the chosen record.
A

Where these numbers come from: patent US20120165309A1
